# Target desc: human CD3 (human) (UniProt P07766)
# Sequence (P07766 23-207): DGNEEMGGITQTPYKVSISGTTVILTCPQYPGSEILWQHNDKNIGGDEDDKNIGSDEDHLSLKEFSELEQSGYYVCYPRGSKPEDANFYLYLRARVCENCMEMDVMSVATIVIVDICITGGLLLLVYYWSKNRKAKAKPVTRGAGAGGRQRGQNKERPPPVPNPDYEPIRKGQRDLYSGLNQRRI
# Run description: cell-based or functional assay

{"Binder": "anti-CD3 HuFR antibody 9 (heavy chain BD20613, light chain BD21138) (antibody, part only; not given: few VH framework 4 residues, V domains shown, part only) VH, part: QVQLQESGPGLVKPSETLSLTCAVSGYTFTRYTMHWVRQAPGKGLEWVGYINPSRGYTNYNQKFKDRFTISRDDSKNTAYLQMNSLKTEDTAVYYCTRYYDDHYCLDYVTVSSASTKGPS VL: DIQMTQSPSTLSASVGDRVTITCSASSSVSYMNWYQQKPGKAPKLLIYDTSKLASGVPDRFSGSGSGTDFTLKISRVEAEDVGVYYCQQWSSNPFTFGQGTKVEIKFGQGTKVEIKR", "Apo-One Apoptosis Assay, 50 ng/ml": 2040}
{"Binder": "anti-CD3 HuFR antibody 4 (heavy chain BD20611, light chain BD21133) (antibody, part only; not given: Heavy stretch before framework 4, V domains shown, part only) VH, part: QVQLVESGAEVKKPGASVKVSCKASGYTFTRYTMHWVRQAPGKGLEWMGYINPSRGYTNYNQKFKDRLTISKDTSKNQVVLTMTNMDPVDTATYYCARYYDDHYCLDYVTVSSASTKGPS VL: DIVMTQSPLSLPVTPGEPASISCSASSSVSYMNWYQQKPGQPPKLLIYDTSKLASGVPSRFSGSGSGTEFTLTISSLQPDDFATYYCQQWSSNPFTFGQGTKVEIKFGQGTKVEIKR", "Apo-One Apoptosis Assay, 50 ng/ml": 3300}
{"Binder": "anti-CD3 HuFR antibody 5 (heavy chain BD20611, light chain BD21134) (antibody, part only; not given: Heavy stretch before framework 4, V domains shown, part only) VH, part: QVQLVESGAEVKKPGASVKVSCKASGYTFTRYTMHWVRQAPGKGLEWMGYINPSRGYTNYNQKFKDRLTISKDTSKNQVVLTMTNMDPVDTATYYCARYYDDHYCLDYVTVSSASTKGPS VL: EIVMTQSPATLSVSPGERATLSCSASSSVSYMNWYQQKPGQPPKLLIYDTSKLASGVPSRFSGSGSGTEFTLTISSLQPDDFATYYCQQWSSNPFTFGQGTKVEIKFGQGTKVEIKR", "Apo-One Apoptosis Assay, 50 ng/ml": 2160}
{"Binder": "anti-CD3 HuFR antibody 1 (heavy chain BD20610, light chain BD21130) (antibody, part only; not given: Heavy stretch before framework 4, V domains shown, part only) VH, part: QVQLVESGAEVKKPGASVKVSCKASGYTFTRYTMHWVRQAPGKGLEWMGYINPSRGYTNYNQKFKDRVTISVDTSKNQFSLKLSSVTAADTAVYYCARYYDDHYCLDYVTVSSASTKGPS VL: DIQMTQSPSSLSASVGDRVTITCSASSSVSYMNWYQQKPGQPPKLLIYDTSKLASGVPDRFSGSGSGTDFTLKISRVEAEDVGVYYCQQWSSNPFTFGQGTKVEIKFGQGTKVEIKR", "Apo-One Apoptosis Assay, 50 ng/ml": 1750}
